Hey, just so you know, these numbers are from ChEMBL document CHEMBL1201862.

System: U-251
Experiment: NCI tumour cell line growth inhibition, 48 h
Calls of active or inactive are those of the source. Rule as the data show it: active = GI50 up to about 1.1 µM and inactive = higher.
Property Label: GI50

As a guide, the following entries are already answered.
OC12CCC3(OC4CCCCO4)c4ccccc4C3C1c1ccccc12 (stereo unspecified); 53.8 µM (inactive)
COC(=O)c1sc(=S)sc1SCc1ccc(CSc2sc(=S)sc2C(=O)OC)cc1; > 100 µM (inactive)
Cc1nnc2sc(-c3ccc([N+](=O)[O-])o3)nn12; 14.7 µM (inactive)

Measured GI50 (U-251), entry "S=C(c1c[nH]c2ccccc12)N1CCN(c2ccccc2)CC1" : 14.2 µM (inactive)

GET /values?item= "COc1ccccc1NC(=O)/C(=C/c1ccccc1)C(C)=O" &system= U-251 returns GI50: 4.47 µM (inactive)

The reported U-251 GI50 of "O=C1NC(=O)C(c2c[nH]c3ccccc23)=C1c1cn(C(c2ccccc2)(c2ccccc2)c2ccccc2)cn1" is 4.25 µM (inactive)

====

Tested on: OVCAR-4
Experiment: NCI tumour cell line growth inhibition, 48 h
Activity calls are given as the source filed them. Rule as the data show it: active = GI50 up to about 1.1 µM and inactive = higher.
Property Label: GI50

Previously resolved entries follow.
C[C@]1(O)O[C@@H]2OCC[C@@H]2C2=C1C(=O)c1ccccc1C2=O; 12.5 µM (inactive)
c1ccc2c(c1)nc1n2sc2nc3ccccc3n21; > 100 µM (inactive)
O=c1[nH]c(=O)n(C2CC(O)C(CO)O2)cc1OS(=O)(=O)C(F)(F)F (stereo unspecified); > 100 µM (inactive)
CC1(C)CC2C=C(C=O)C3(C=O)CC3(C)C2C1 (stereo unspecified); 1.73 µM (inactive)

Given item "Cc1cn(S(=O)(=O)c2ccccc2)c2c(OCc3ccccc3)cc([N+](=O)[O-])cc12" , the value recorded as its GI50 is 86.3 µM (inactive)

The recorded GI50 for O=C(CC(C(=O)c1cccs1)c1cccs1)c1ccccc1Cl (stereo unspecified) is > 100 µM (inactive)

====

Parameter: GI50. Scope: all listed entries.
System: OVCAR-5
Experiment: NCI tumour cell line growth inhibition, 48 h
Active and inactive are the calls of the source. Rule as the data show it: active = GI50 up to about 1.1 µM and inactive = higher.

Lab note: "Nc1ncnc2c1ncn2[C@@H]1C[C@H](NO)[C@@H](O)[C@H]1O" gave GI50 of > 100 µM (inactive)

GET /value?item= "COc1ccccc1NC(=O)C1=C(C)NC(C)=C(C(=O)Nc2ccccc2OC)C1c1ccc([N+](=O)[O-])cc1" &field=GI50 returns 22.4 µM (inactive)

====

Test system: A549
Experiment: NCI tumour cell line growth inhibition, 48 h
Activity calls are given as the source filed them. No stated cut-off is given here; in the data, active = GI50 up to about 1.1 µM and inactive = higher.
Property Label: GI50

Worked set:
O=C(CC(=O)C(=O)Nc1ccccc1)CC(c1ccccc1)c1c(O)c2ccccc2oc1=O (stereo unspecified); > 100 µM (inactive)
C1=CC2(C=CC13O[C@H](C1CCCCC1)[C@@H](C1CCCCC1)O3)O[C@H](C1CCCCC1)[C@@H](C1CCCCC1)O2; > 50 µM (inactive)
Nc1nc(Nc2ccc(Cl)cc2)sc1C(=O)c1cccs1; 27.9 µM (inactive)
N#Cc1ccc(Sc2nc3ccccc3[nH]2)cc1; 78.2 µM (inactive)

Form: molecule = "CCOC(=O)CSc1c(C(=O)OCC)c(=O)n(-c2ccccc2)c(=S)n1-c1ccccc1" ; GI50 = 32.1 µM (inactive)

get_value(item= "COc1cc(C(=O)C/C(CCC(=O)Nc2ccc(Cl)cc2Cl)=N/NC(=O)C(=O)NN)ccc1O" , readout=GI50) returns > 100 µM (inactive)

Field GI50 (entry CC1(C)CCCCCC(C)(CCCCCCCCCCCO)C1=O (stereo unspecified) ) reads 15.1 µM (inactive)

get_value(item= "CC(C)c1cc(C(C)C)c(S(=O)(=O)NN)c(C(C)C)c1" , readout=GI50) returns > 100 µM (inactive)

Short answer for O=C(NCCCCCCNC(=O)NC1OCC(O)C(O)C1O)NC1OCC(O)C(O)C1O (stereo unspecified) : GI50 was > 100 µM (inactive)

The value of GI50 measured for the molecule "COc1ccc2c(c1)CCc1c-2n(CCN2CCCCC2)c2ccc(OC)cc12" turned out to be > 100 µM (inactive)

====

Test system: NCI/ADR-RES
Experiment: NCI tumour cell line growth inhibition, 48 h
The source made the active and inactive calls. Rule as the data show it: active = GI50 up to about 1.1 µM and inactive = higher.
I would appreciate it if you answered using one of these outcomes: Yes (active), No (inactive)

Example results:
S=C(c1c[nH]c2ccccc12)N1CCN(c2ccccc2)CC1; No
COC1/C=C/C(C)C(C(C)C(OC)C(C)CCC(=O)C(C)C(C/C=C/N(C)C=O)OC)OC(=O)/C=C/C=C(\C)CC(OC)CC2=CC(=O)O[C@H](C2)C(C)C(OC)CC(OC)/C=C/C(C)C(OC)C1 (stereo partly specified); Yes

## Task So what was the verdict on CC1(C)CC2C=C(C=O)C3(C=O)CC3(C)C2C1 (stereo unspecified) in this test?
## Result No

## Task Write down the call the test reported for this compound. Item: "O=c1c2c3c(sc2nc(CN2CCNCC2)n1-c1ccccc1)CCCC3"
## Result No

## Task Which result was noted for this compound in the test: CC(=O)OC1C(C)OC(OC2C[C@](O)(C(C)=O)Cc3c(O)c4c(c(O)c32)C(=O)c2ccccc2C4=O)C(F)C1OC(C)=O (stereo partly specified)
## Result No

## Task Entry "COC(=O)CCC1=NCC(C)(C)O1" : call = ?
## Result No

## Task Outcome? OC(CC(O)(C(F)(F)F)C(F)(F)F)C(O)c1ccco1 (stereo unspecified)
## Result No

## Task Per the records of this test, what outcome belongs to "COC(=O)C1(C(=O)OC)Cc2ccc(C)cc2C2=C1C(=O)c1ccccc1C2=O" ?
## Result No

====

Test system: DMS-273
Experiment: NCI tumour cell line growth inhibition, 48 h
Calls of active or inactive are those of the source. No stated cut-off is given here; in the data, active = GI50 up to about 1.1 µM and inactive = higher.
Property Label: GI50

Consider the reported GI50 for these molecules:
C[N+](C)(C)C1CC([N+](C)(C)C)C2c3ccccc3C21 (stereo not given); > 100 µM (inactive)
Cn1cnc([N+](=O)[O-])c1Sc1nnnn1C; 17.7 µM (inactive)
COc1c(OC(C)=O)c(OC(C)=O)cc2c1-c1ccc(OC)c(=O)cc1C(NC(C)=O)CC2 (stereo not given); 0.0172 µM (active)
OCC1OC(n2ccc3cnccc32)CC1O (stereo not given); > 100 µM (inactive)

// GI50 value for CC(C)N(C(=O)C12C3C4C1(I)C1C2C3(I)C41C(=O)N(C(C)C)C(C)C)C(C)C (stereo not given) : > 100 µM (inactive)

Value of GI50 reported for the molecule "CC(C)O/C=C1\C(=O)C2(SCCS2)[C@H]2CCCC[C@@H]12" is 37.2 µM (inactive)

====

// reported GI50 per item
Test system: LOX IMVI
Experiment: NCI tumour cell line growth inhibition, 48 h
Active and inactive are the calls of the source. No stated cut-off is given here; in the data, active = GI50 up to about 1.1 µM and inactive = higher.

COc1ccc(NCC(=O)Nn2c(-c3ccccc3)nc3ccccc3c2=O)cc1; 19.6 µM (inactive)
CCN1c2ccccc2C(C(SC)S(=O)(=O)c2ccc(C)cc2)c2c1[nH]c(=O)n(C)c2=O (stereo unspecified); > 100 µM (inactive)
Cc1ccc([N+](=O)[O-])cc1NC(=O)C(=O)C(C(=O)c1ccccc1F)C1OC(=O)c2ccccc21 (stereo unspecified); 27.5 µM (inactive)

Per the record, COC1=NC(NC2OCC(O)C(O)C2O)=C(NC(C)=O)CN1C (stereo unspecified) has GI50 of > 100 µM (inactive)

Reported GI50 for O=C(O)c1cccc(CC(Br)C(=O)O)c1 (stereo unspecified) was > 100 µM (inactive)

# compound CCCNCC(O)CNc1ccc(NCC(O)CNCCC)c2c1C(=O)c1ccccc1C2=O (stereo unspecified) ; its GI50 = 1.44 µM (inactive)

====

Tested on: RXF 393
Experiment: NCI tumour cell line growth inhibition, 48 h
Active and inactive are the calls of the source. No stated cut-off is given here; in the data, active = GI50 up to about 1.1 µM and inactive = higher.
Property Label: GI50

Observe how each entry below is paired with its result.
CC1COS(=O)N1c1ccccc1 (stereo not given); > 100 µM (inactive)
CN(CCN(C)C(=O)CCn1cc(F)c(=O)[nH]c1=O)C(=O)CCn1cc(F)c(=O)[nH]c1=O; > 100 µM (inactive)
O=C1C[C@@H]2[C@@H](C=CC23CC3)N1O; > 100 µM (inactive)

Measured GI50 of C=C(CN1CC2C[C@](C(=O)OC)(c3cc4ccccc4[nH]3)C1C(OC)C2OC)S(=O)(=O)c1ccccc1 (stereo not given in full) : 3.19 µM (inactive)

Reported GI50 for "COc1cccc2nc3c(C(=O)NCCN(C)C)cccc3cc12" was 3.94 µM (inactive)

====

# GI50 values compiled below
Tested on: OVCAR-8
Experiment: NCI tumour cell line growth inhibition, 48 h
The source made the active and inactive calls. Cut-off read from the data, not from the text of the source: active = GI50 up to about 1.1 µM and inactive = higher.

Measured GI50 of "C[C@@H]1C[C@H]2[C@@H]3CCC4=CC(=O)C=C[C@]4(C)[C@@]3(Cl)[C@@H](Cl)C[C@]2(C)[C@@]1(O)C(=O)COP(=O)(O)O" : > 100 µM (inactive)
